Reference source: patent US20260151494A1

biological target: apical domain of CD71 (Screen 3: 'cynomolgus apical domain of human CD71') (cynomolgus (as paragraph 454 words it; ambiguous)); assay: primary ELISA

binder	RLU / RLU
CD71-binding FN3 domain SEQ ID NO: 313 (designed binder) MSLPAPKNLVVSRVTEDSARLSWTAPDAAFDSFEIAYFENDWAGEAIVLTIPGSERSYDLTGLKPGTEYWVQIGGVKGGNWSAPLSAIFTT	5.17e+06
CD71-binding FN3 domain SEQ ID NO: 316 (designed binder) MSLPAPKNLVISRVTEDSARLSWTAPDAAFDSFEIGYFENLYLGEAIVLTVPGSERSYDLTGLKPGTEYWVQIGGVKGGNWSAPLSAIFTT	4.44e+06
CD71-binding FN3 domain SEQ ID NO: 242 (designed binder) MSLPAPKNLVVSRVTEDSARLSWTAPDAAFDSFEIGYFENLYLGEAIVLTVPGSERSYDLTGLKPGTKYWVQIGGVKGGNWSAPLSAIFTT	4.84e+06
CD71-binding FN3 domain SEQ ID NO: 255 (designed binder) MSLPAPKNLVVSRVTEDSARLSWTTPDAAFDSFEIAYFEIAWLGEAIVLTVPGSERSYDLTGLKPGTEYWVQIGGVKGGAYSTPLSAIFTT	5.41e+06
CD71-binding FN3 domain SEQ ID NO: 332 (designed binder) MSLPAPKNLVVSRVTEDSARLSWTAPDAAFDSFEIGYWEGPGGGEAIILVVPGSERSYDLTGLKPGTEYYVQIGGVKGGDWSTPLWATFTT	4.94e+06
CD71-binding FN3 domain SEQ ID NO: 300 (designed binder) MSLPAPKNLVVSRVTEDSARLSWTAPDAAFDSFEIGYFEATPNGEAIVLTVPGSERSYDLTGLKPGTEYKVFIGGVKGGRWSKPLSAIFTT	5.57e+06
CD71-binding FN3 domain SEQ ID NO: 276 (designed binder) MSLPAPKNLVVSRVTEDSARLSWTAPDAAFDSFEIAYFELDYVGEAIVLTVPGSERSYDLTGLKPGTEYWVQIGGVKGGTWSGPLSAIFTI	4.54e+06
CD71-binding FN3 domain SEQ ID NO: 329 (designed binder) MSLPAPKNLVVSRVTEDSARLSWTAPDAAFDSFDIGYFEATYYGEAIVLTVPGSERSYDLTGLKPGTEYRVWIGGVKGGYYSNPLSAIFTT	4.64e+06
CD71-binding FN3 domain SEQ ID NO: 325 (designed binder) MSLPAPKNLVVSRVTEDSARLSWTAPDAAFDSFEIGYFENLYLGEAIVLTVPGSERSYDLTGLKPGTEYWVQIGGVKGGNWSAPLSEIFTT	4.37e+06
